Data credit: ChEMBL document CHEMBL4118202

Target or system: Alpha-1B adrenergic receptor (Homo sapiens, UniProt P35368)
Sequence (P35368 whole entry): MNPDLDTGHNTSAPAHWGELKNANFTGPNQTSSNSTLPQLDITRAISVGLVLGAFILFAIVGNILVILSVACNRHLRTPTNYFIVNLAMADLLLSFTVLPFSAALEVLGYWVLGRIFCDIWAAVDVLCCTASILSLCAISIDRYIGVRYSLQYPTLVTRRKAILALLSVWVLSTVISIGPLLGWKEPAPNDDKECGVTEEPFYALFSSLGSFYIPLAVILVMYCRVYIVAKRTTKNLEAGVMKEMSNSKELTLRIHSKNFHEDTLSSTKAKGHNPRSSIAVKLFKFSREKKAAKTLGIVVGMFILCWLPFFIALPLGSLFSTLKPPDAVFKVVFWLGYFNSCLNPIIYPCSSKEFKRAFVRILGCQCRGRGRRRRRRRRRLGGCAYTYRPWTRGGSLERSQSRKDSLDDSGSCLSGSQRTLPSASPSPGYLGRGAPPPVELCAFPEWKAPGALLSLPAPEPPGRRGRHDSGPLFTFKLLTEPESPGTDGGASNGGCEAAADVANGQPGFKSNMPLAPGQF
Measurement notes: Binding affinity to alpha1B adrenergic receptor (unknown origin)
Readout: Ki (nM)
Please state the figure in nM; there is no need to write the unit.

Please report the recorded Ki for COc1cc2nc(N3CCN(C(=O)C4COc5ccccc5O4)[C@H]4CCCC[C@H]43)nc(N)c2cc1OC (single isomer, unassigned; (-)) . 1.41

----------
Target or system: Alpha-1A adrenergic receptor (Homo sapiens)
Sequence (P35348 whole entry): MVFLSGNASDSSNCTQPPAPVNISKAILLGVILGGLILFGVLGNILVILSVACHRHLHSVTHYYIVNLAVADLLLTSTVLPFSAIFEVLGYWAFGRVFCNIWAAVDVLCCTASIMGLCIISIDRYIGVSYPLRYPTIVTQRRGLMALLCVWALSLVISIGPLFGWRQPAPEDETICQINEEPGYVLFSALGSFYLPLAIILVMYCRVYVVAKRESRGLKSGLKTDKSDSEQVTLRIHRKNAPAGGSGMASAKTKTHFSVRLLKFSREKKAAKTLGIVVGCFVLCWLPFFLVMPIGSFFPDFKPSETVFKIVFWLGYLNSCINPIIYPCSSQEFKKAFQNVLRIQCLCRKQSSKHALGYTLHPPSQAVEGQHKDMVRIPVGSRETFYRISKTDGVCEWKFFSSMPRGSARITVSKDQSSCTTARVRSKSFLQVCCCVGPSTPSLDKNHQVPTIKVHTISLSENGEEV
Measurement notes: Binding affinity to alpha1A adrenergic receptor (unknown origin)
Readout: Ki
Answer by giving the amount and then stating its unit.

Please report the recorded Ki for COc1cc2nc(N3CCN(C(=O)C4COc5ccccc5O4)[C@H]4CCCC[C@H]43)nc(N)c2cc1OC (single isomer, unassigned; (-)) [CYCLODOXAZOSIN] . 3.39 nM
